Sourced from PubChem BioAssay AID1963875

Tested on: KRAS-mutant PDC complex spheroid viability;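 also: viability read after seven days of compound exposure; 100% = DMSO vehicle-treated spheroids so lower means less viable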
Experiment: Anticancer human tumor 186277-243-T-J2-PDC patient-derived colon adenocarcinoma cell line growth inhibition [KRAS2]
Settings: second compound 0.316 µM; first compound 10 µM; hits give low values
# strict inequality: viability, T/C < 10% yields 1.0, everything else yields 0.0

* CC1OCC2(CCN(c3cnc(Sc4ccnc(N)c4Cl)c(N)n3)CC2)C1N (stereo unspecified) + CNCc1ccccc1-c1csc(C(C)Nc2nc(C)nc3cc(OC)c(OC)cc23)c1 | 0.0
* COc1cc(Nc2ncc3c(n2)-c2ccc(Cl)cc2C(c2c(F)cccc2OC)=NC3)ccc1C(=O)O + COc1cc2nc(C)nc(NC(C)c3cc(N)cc(C(F)(F)F)c3)c2cc1OC1CCOC1 | 0.0
* CCNC(=O)CC1N=C(c2ccc(Cl)cc2)c2cc(OC)ccc2-n2c(C)nnc21 (stereo unspecified) + CNCc1ccccc1-c1csc(C(C)Nc2nc(C)nc3cc(OC)c(OC)cc23)c1 | 0.0
* CC(C)NCC(C(=O)N1CCN(c2ncnc3c2C(C)CC3O)CC1)c1ccc(Cl)cc1 (stereo unspecified) + COc1cc2nc(C)nc(NC(C)c3cc(N)cc(C(F)(F)F)c3)c2cc1OC1CCOC1 | 1.0
* COc1cc2nccc(Oc3ccc(NC(=O)C4(C(=O)Nc5ccc(F)cc5)CC4)cc3)c2cc1OC + COc1cc2nc(C)nc(NC(C)c3cc(N)cc(C(F)(F)F)c3)c2cc1OC1CCOC1 | 0.0
* COc1cc2nccc(Oc3ccc(NC(=O)C4(C(=O)Nc5ccc(F)cc5)CC4)cc3)c2cc1OC + CNCc1ccccc1-c1csc(C(C)Nc2nc(C)nc3cc(OC)c(OC)cc23)c1 | 1.0
* CCNC(=O)CC1N=C(c2ccc(Cl)cc2)c2cc(OC)ccc2-n2c(C)nnc21 (stereo unspecified) + C=CC(=O)N1CCN(c2nc(OCC3CCCN3C)nc3c2CCN(c2cccc4cccc(C)c24)C3)CC1CC#N | 0.0
* COC(=O)c1ccc2c(C(=Nc3ccc(N(C)C(=O)CN4CCN(C)CC4)cc3)c3ccccc3)c(O)[nH]c2c1 + C=CC(=O)N1CCN(c2nc(=O)n(-c3c(C)ccnc3C(C)C)c3nc(-c4c(O)cccc4F)c(F)cc23)C(C)C1 | 1.0
* Cn1nccc1Nc1nccc(-c2cc3c(s2)C(C)(C)N(CCN2CCOCC2)C3=O)n1 + C=CC(=O)N1CCN(c2nc(OCC3CCCN3C)nc3c2CCN(c2cccc4cccc(C)c24)C3)CC1CC#N | 1.0
* O=C(c1cc(Cc2n[nH]c(=O)c3ccccc23)ccc1F)N1CCN(C(=O)C2CC2)CC1 + C=CC(=O)N1CCN(c2nc(OCC3CCCN3C)nc3c2CCN(c2cccc4cccc(C)c24)C3)CC1CC#N | 0.0
